Molecular target: GST tagged LXRbeta LBD (ligand binding domain) (Homo sapiens)
Construct: purchased Invitrogen pv4658.pps
Sequence (P55055 222-460 limits assumed): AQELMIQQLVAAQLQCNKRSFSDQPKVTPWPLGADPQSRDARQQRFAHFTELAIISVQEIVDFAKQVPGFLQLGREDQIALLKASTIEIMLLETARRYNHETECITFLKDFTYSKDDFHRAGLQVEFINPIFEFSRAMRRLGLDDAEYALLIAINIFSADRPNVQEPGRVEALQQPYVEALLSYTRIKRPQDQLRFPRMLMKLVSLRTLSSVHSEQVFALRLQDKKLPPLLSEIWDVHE
Assay: LanthaScreen TR-FRET Liver X Receptor Coactivator Assay, LXR beta-LBD
Assay type: biochemical
Details: activity at max dose (efficacy), relative to reference T0901317; read-out: LXR beta act @ max dose (%)
VALUE_KIND: Emax (%)

COMPOUND: CN(C)C(=O)c1ccc(N2CCC(C3CCN(C(=O)C4(c5ccc(Cl)c(Cl)c5)CCC4)CC3)CC2)cc1Cl [Example A-74]
UOM: %
Emax: 57

I: Cc1nc(N2CCC(C3CCN(C(=O)C(O)(C(C)C)C(F)(F)F)CC3)CC2)ccc1C(=O)N(C)C (centres unmarked) [Example C-1]
II: CN(C)C(=O)c1ccc(N2CCC(C3CCN(c4ccccc4Cl)CC3)CC2)cc1Cl [Example A-107]
Compare I and II and name the one whose reported Emax is smaller. Field: selected label. Fill in the label of the entry you choose.
II

====

target: GST tagged LXRalpha LBD (ligand binding domain) (Homo sapiens, UniProt Q13133); assay: LanthaScreen TR-FRET Liver X Receptor Coactivator Assay, LXR alpha-LBD; conditions: Inflection Point (potency), co-activator recruitment, relative to reference T0901317; read-out: LXR alpha IP
VALUE_KIND: EC50 (nM)

Here are 2 compounds together with their reported answers.
COMPOUND: COC(=O)C1CN(C(=O)c2ccc(N3CCC(C4CCN(C(=O)[C@](O)(c5ccccc5)C(F)(F)F)CC4)CC3)cc2Cl)C1
RESULT_NUMBER: 2260
//
COMPOUND: CS(=O)(=O)c1ccc(N2CCC(C3CCN(C(=O)c4c(F)cccc4F)CC3)CC2)cc1Cl
RESULT_NUMBER: 772

P: CN(C)C(=O)c1c(Cl)cc(N2CCC(C3CCN(C(=O)[C@](O)(c4ccccc4)C(F)(F)F)CC3)CC2)cc1Cl
Q: CN(C)C(=O)c1ccc(N2CCC(C3CCN(C(=O)C(C)(c4ccccc4)C(F)(F)F)CC3)CC2)cc1Cl (stereo not shown)
Larger number for EC50: P , or Q ? Field: selected label. Fill in the label of the entry you choose.
Q
(Q: 861 nM, P: 483 nM)

====

Molecular target: GST tagged LXRalpha LBD (ligand binding domain) (Homo sapiens, UniProt Q13133)
Construct: purchased Invitrogen pv4655
Sequence (Q13133 209-447 limits assumed): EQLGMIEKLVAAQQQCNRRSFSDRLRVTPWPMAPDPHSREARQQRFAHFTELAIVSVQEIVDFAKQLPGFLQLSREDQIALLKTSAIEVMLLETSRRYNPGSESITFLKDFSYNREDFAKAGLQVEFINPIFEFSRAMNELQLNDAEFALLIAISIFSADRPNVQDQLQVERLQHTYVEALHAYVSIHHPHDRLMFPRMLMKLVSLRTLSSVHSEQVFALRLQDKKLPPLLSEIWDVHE
Test: LanthaScreen TR-FRET Liver X Receptor Coactivator Assay, LXR alpha-LBD
Type: biochemical
Conditions: Inflection Point (potency), co-activator recruitment, relative to reference T0901317; read-out: LXR alpha IP
pEC50: −log10 of the molar value.
VALUE_KIND: pEC50

Here are 5 molecules together with their reported answers.
MOLECULE: CC(C)C(O)(C(=O)N1CCC(C2CCN(c3ccc(C(=O)N(C)C)c(Cl)n3)CC2)CC1)C(F)(F)F (stereo in doubt) [Example B-5]
TARGET_UNDER_TEST: GST tagged LXRalpha LBD (ligand binding domain) (Homo sapiens, UniProt Q13133)
pEC50: 5.96
//
MOLECULE: CC(C)N(C)C(=O)c1ccc(N2CCC(C3CCN(C(=O)C(O)(C(C)C)C(F)(F)F)CC3)CC2)cc1Cl (centres unmarked)
TARGET_UNDER_TEST: GST tagged LXRalpha LBD (ligand binding domain) (Homo sapiens, UniProt Q13133)
pEC50: 6.12
//
MOLECULE: CN(C)C(=O)c1ccc(N2CCC(C3CCN(C(=O)c4c(F)cccc4F)CC3)CC2)cc1Cl
TARGET_UNDER_TEST: GST tagged LXRalpha LBD (ligand binding domain) (Homo sapiens, UniProt Q13133)
pEC50: 5.53
//
MOLECULE: CN(C)C(=O)c1ccc(N2CCC(C3CCN(C(=O)c4c(F)cc(F)cc4F)CC3)CC2)cc1Cl
TARGET_UNDER_TEST: GST tagged LXRalpha LBD (ligand binding domain) (Homo sapiens, UniProt Q13133)
pEC50: 5.39
//
MOLECULE: CN(C)C(=O)c1ccc(N2CCC(C3CCN(C(=O)C4(C(F)(F)F)CCCC4)CC3)CC2)cc1Cl
TARGET_UNDER_TEST: GST tagged LXRalpha LBD (ligand binding domain) (Homo sapiens, UniProt Q13133)
pEC50: 5.61

P: CC(C)[C@](O)(C(=O)N1CCC(C2CCN(c3ccc(C(=O)N(C)C)c(Cl)c3)CC2)CC1)C(F)(F)F (single isomer, unassigned)
Q: CNC(=O)c1ccc(N2CCC(C3CCN(C(=O)[C@](O)(c4ccccc4)C(F)(F)F)CC3)CC2)cc1Cl
R: CN(C)C(=O)c1ccc(N2CCC(C3CCN(S(=O)(=O)c4c(Cl)cccc4C(F)(F)F)CC3)CC2)cc1Cl
Put the entries in order of pEC50, starting with the largest number. # output: labels, in the requested order
R, Q, P
(R: 5.96, Q: 5.69, P: 5.45)

====

molecular target: GST tagged LXRbeta LBD (ligand binding domain) (Homo sapiens, UniProt P55055); assay: LanthaScreen TR-FRET Liver X Receptor Coactivator Assay, LXR beta-LBD; conditions: Inflection Point (potency), co-activator recruitment, relative to reference T0901317; read-out: LXR beta IP
pEC50: −log10 of the molar value.
VALUE_KIND: pEC50

A: Cc1nc(N2CCC(C3CCN(C(=O)C(O)(C(C)C)C(F)(F)F)CC3)CC2)ccc1C(=O)N(C)C (stereo not shown)
B: CC(C)C(O)(C(=O)N1CCC(C2CCN(c3ccc(C(N)=O)c(Cl)c3)CC2)CC1)C(F)(F)F (stereo not shown)
C: CC(C)C(O)(C(=O)N1CCC(C2CCN(c3ccc(C(=O)N(C)C)cc3Cl)CC2)CC1)C(F)(F)F (stereo not shown)
Ordering: ascending pEC50. # output: labels, in the requested order
C, A, B

A: CN(C)C(=O)c1ccc(N2CCC(C3CCN(C(=O)C(C)(C)c4ccc(O)cc4)CC3)CC2)cc1Cl
B: CN(C)C(=O)c1ccc(N2CCC(C3CCN(C(=O)C(F)(F)c4ccc(F)cc4)CC3)CC2)cc1Cl
Compare A and B and name the one whose reported pEC50 is smaller. Field: selected label. Fill in the label of the entry you choose.
B

I: CC(C)(C)OC(=O)NC1CN(C(=O)c2ccc(N3CCC(C4CCN(C(=O)[C@](O)(c5ccccc5)C(F)(F)C(F)(F)F)CC4)CC3)cc2Cl)C1
II: CC(c1ccon1)N(C)C(=O)c1ccc(N2CCC(C3CCN(C(=O)[C@](O)(c4ccccc4)C(F)(F)F)CC3)CC2)cc1Cl (stereo partly shown)
Larger number for pEC50: I , or II ? Field: selected label. Fill in the label of the entry you choose.
I

====

target: GST tagged LXRbeta LBD (ligand binding domain) (Homo sapiens, UniProt P55055); assay: LanthaScreen TR-FRET Liver X Receptor Coactivator Assay, LXR beta-LBD; conditions: Inflection Point (potency), co-activator recruitment, relative to reference T0901317; read-out: LXR beta IP
VALUE_KIND: EC50 (nM)

Here are 3 compounds together with their reported answers.
COMPOUND: CN(C)C(=O)c1ccc(N2CCC(C3CCN(C(=O)[C@](O)(c4ccccc4)C(F)(F)C(F)(F)F)CC3)CC2)cc1Cl (single isomer, unassigned)
RESULT_NUMBER: 35

COMPOUND: CN(C)C(=O)c1ccc(N2CCC(C3CCN(C(=O)[C@@](C)(O)c4ccccc4)CC3)CC2)cc1Cl
RESULT_NUMBER: 256

COMPOUND: CC(C)(C(=O)N1CCC(C2CCN(c3ccc(C(=O)N4CCCC4)c(Cl)c3)CC2)CC1)c1ccccc1
RESULT_NUMBER: 73

1: CCCCN(C)C(=O)c1ccc(N2CCC(C3CCN(C(=O)[C@](O)(c4ccccc4)C(F)(F)F)CC3)CC2)cc1Cl
2: CN(C)C(=O)c1ccc(N2CCC(C3CCN(C(=O)C4(c5ccccc5)CCC4)CC3)CC2)cc1Cl
3: O=C(c1ccc(N2CCC(C3CCN(C(=O)[C@](O)(c4ccccc4)C(F)(F)C(F)(F)F)CC3)CC2)cc1Cl)N1CCC[C@H]1CO
Put the entries in order of EC50, starting with the largest number. # output: labels, in the requested order
1, 2, 3
(1: 208 nM, 2: 36 nM, 3: 12 nM)
